# Assay Procedure: IUF_NPC2c_oligodendrocyte_migration_120hr: Leibniz Research Institute for Environmental Medicine (IUF) 120-hour Neural Progenitor Cell Migration Assay for Oligodendrocyte Migration (NPC2c) (AID 2284297);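 further: O4-positive oligodendrocyte migration distance divided by radial glia migration distance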
Active and inactive are the calls of the source. How the source made its calls: active means hit-call score of the fitted dose curve at least 0.9, where 1 is the maximum; inactive means score below 0.9.
Endpoint: AC50

Please review the following examples before continuing.
Exercise: For the molecule CC(=NC#N)N(C)Cc1ccc(Cl)nc1 , what AC50 is on record?
Solution: inactive

Exercise: For the molecule CC(C)N(C(=O)SCC(Cl)=C(Cl)Cl)C(C)C , what AC50 is on record?
Solution: inactive

Exercise: For the molecule S=C1NCCN1 , what AC50 is on record?
Solution: inactive

Exercise: For the molecule O=[N+]([O-])c1cc(C(F)(F)F)c(Cl)c([N+](=O)[O-])c1Nc1ncc(C(F)(F)F)cc1Cl , what AC50 is on record?
Solution: 0.736 µM (active)

Exercise: For the molecule CON=C(C(=O)OC)c1ccccc1CON=C(C)c1cccc(C(F)(F)F)c1 , what AC50 is on record?
Solution: 71.2 µM (active)

More entries:
Exercise: For the molecule CCOP(=S)(OCC)OC(Cl)C(Cl)(Cl)Cl (configuration not stated) , what AC50 is on record?
Solution: inactive

Exercise: For the molecule CC1=NNC(=O)N(/N=C/c2cccnc2)C1 , what AC50 is on record?
Solution: inactive

Exercise: For the molecule CCOP(=S)(OCC)SCCSCC , what AC50 is on record?
Solution: inactive

Exercise: For the molecule CCOP(=S)(OCC)Oc1cc(C)nc(C(C)C)n1 , what AC50 is on record?
Solution: inactive

Exercise: For the molecule CN1COCN(Cc2cnc(Cl)s2)C1=N[N+](=O)[O-] , what AC50 is on record?
Solution: inactive

Exercise: For the molecule CN(C)[C@@H]1C(=O)C(C(N)=O)=C(O)[C@@]2(O)C(=O)C3=C(O)c4c(O)cccc4[C@@](C)(O)[C@H]3[C@H](O)[C@@H]12 , what AC50 is on record?
Solution: 55.1 µM (active)

Exercise: For the molecule CCOC(=O)CC(SP(=O)(OC)OC)C(=O)OCC (configuration not stated) , what AC50 is on record?
Solution: inactive
